Ref: patent US10590106B2

Test system: Colo205 cells
assay text: Inhibition of cancer cell growth, MTT or MTS assay, Colo205
Format: cell-based
conditions used: Homo sapiens, COLO 205; 72 h incubation
pIC50: −log10 of the molar value.
endpoint name: pIC50

Look up pIC50 for this molecule: O=C(Nc1ccc(Oc2ccc3ncc(N4CCNCC4)nc3c2)cc1)Nc1ccc(Cl)c(C(F)(F)F)c1
> 6.00

Try this molecule next: O=C(Nc1ccc(F)cc1)Nc1ccc(Oc2ccc3ncc(N4CCOCC4)nc3c2)cc1
< 5.30

Try this molecule next: O=C(Nc1ccc(Oc2ccc3ncc(N4CCNCC4)nc3c2)cc1)Nc1ccc(F)c(C(F)(F)F)c1
5.30 to 6.00

Try this molecule next: O=C(Nc1cccc(Oc2ccc3nccnc3c2)c1)Nc1ccc(Cl)c(C(F)(F)F)c1
5.30 to 6.00

====

Provide the recorded inhibition at 1 µM for the entries that follow.
tgt: BRAF V600E (Homo sapiens (Human), UniProt P15056, V600E)
Sequence (P15056 whole entry V600E): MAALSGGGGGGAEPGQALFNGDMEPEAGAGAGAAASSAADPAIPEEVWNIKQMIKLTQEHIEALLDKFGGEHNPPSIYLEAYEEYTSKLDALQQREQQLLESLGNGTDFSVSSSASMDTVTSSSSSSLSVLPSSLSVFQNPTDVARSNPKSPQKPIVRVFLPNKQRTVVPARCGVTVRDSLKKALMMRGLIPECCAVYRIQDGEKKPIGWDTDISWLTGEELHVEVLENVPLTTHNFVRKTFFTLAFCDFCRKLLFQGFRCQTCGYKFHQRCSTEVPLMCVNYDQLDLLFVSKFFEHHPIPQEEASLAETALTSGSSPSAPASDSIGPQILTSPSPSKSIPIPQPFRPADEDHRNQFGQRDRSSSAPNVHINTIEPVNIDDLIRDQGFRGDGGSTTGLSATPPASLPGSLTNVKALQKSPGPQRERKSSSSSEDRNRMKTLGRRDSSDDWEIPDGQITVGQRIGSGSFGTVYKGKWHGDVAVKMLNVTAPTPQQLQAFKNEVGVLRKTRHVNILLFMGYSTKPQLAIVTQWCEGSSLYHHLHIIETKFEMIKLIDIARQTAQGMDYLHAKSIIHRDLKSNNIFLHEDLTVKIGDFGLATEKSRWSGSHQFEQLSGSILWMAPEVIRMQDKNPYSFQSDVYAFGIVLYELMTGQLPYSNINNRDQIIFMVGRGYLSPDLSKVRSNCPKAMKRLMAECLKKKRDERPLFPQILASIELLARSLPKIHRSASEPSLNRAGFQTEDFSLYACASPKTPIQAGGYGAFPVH
assay text: Inhibitory activity against kinase BRAF V600E, Z'-LYTE method (Invitrogen)
Type: biochemical
conditions used: 1 μM compound; read-out: Inhibition (% inhibition at 1 μM) against BRAF V600E

Look up inhibition at 1 µM for this molecule: CCCS(=O)(=O)Nc1cc(F)cc(Oc2ccc3nccnc3c2)c1 [Compound C019]
< 70%

Try this molecule next: O=C(Nc1cc(F)cc(Oc2ccc3nccnc3c2)c1)c1ccc(Cl)c(C(F)(F)F)c1 [Compound C016]
> 89%

Try this molecule next: O=C(Nc1cc(F)cc(Oc2ccc3ncc(N4CCOCC4)nc3c2)c1)Nc1ccc(Cl)c(C(F)(F)F)c1 [Compound C033]
70 to 89%

Try this molecule next: O=C(Nc1cc(F)cc(Oc2ccc3nccnc3c2)c1)Nc1cccc(C(F)(F)F)c1 [Compound C021]
> 89%

Try this molecule next: O=C(Nc1cc(F)cc(Oc2ccc3nccnc3c2)c1)Nc1ccc(Cl)c(C(F)(F)F)c1 [Compound C022]
70 to 89%

Try this molecule next: O=C(Nc1cccc(Cl)c1)Nc1ccc(Oc2ccc3nccnc3c2)cc1F [Compound C093]
> 89%

Try this molecule next: O=C(Nc1ccc(Cl)cc1)Nc1cccc(Oc2ccc3ncc(N4CCOCC4)nc3c2)c1 [Compound C048]
> 89%

Try this molecule next: O=C(Nc1cccc(C(F)(F)F)c1)Nc1ccc(F)c(Oc2ccc3nccnc3c2)c1 [Compound C024]
> 89%

Try this molecule next: O=C(Nc1cccc(Cl)c1)Nc1cccc(Oc2ccc3ncc(N4CCNCC4)nc3c2)c1 [Compound C050]
> 89%

Try this molecule next: O=C(Nc1ccc(Cl)c(F)c1)Nc1ccc(F)c(Oc2ccc3ncc(N4CCNCC4)nc3c2)c1 [Compound C068]
> 89%

Try this molecule next: O=C(Nc1cc(F)cc(Oc2ccc3nccnc3c2)c1)c1cccc(F)c1 [Compound C014]
70 to 89%

Try this molecule next: O=C(Nc1ccc(F)c(Oc2ccc3ncc(N4CCOCC4)nc3c2)c1)Nc1ccc(Cl)c(C(F)(F)F)c1 [Compound C009]
< 70%

Try this molecule next: O=C(Nc1ccc(Oc2ccc3ncc(N4CCOCC4)nc3c2)cc1)Nc1ccc(Cl)c(C(F)(F)F)c1 [Compound C084]
70 to 89%

Try this molecule next: O=C(Nc1ccc(Cl)cc1)Nc1ccc(Oc2ccc3ncc(N4CCNCC4)nc3c2)cc1 [Compound C092]
> 89%

Try this molecule next: O=C(Nc1cccc(Oc2ccc3ncc(N4CCNCC4)nc3c2)c1)Nc1ccc(Cl)c(C(F)(F)F)c1 [Compound C041]
> 89%

Try this molecule next: O=C(Nc1ccc(F)c(F)c1)Nc1ccc(F)c(Oc2ccc3ncc(N4CCNCC4)nc3c2)c1 [Compound C061]
> 89%

Try this molecule next: O=C(Nc1ccc(Oc2ccc3nccnc3c2)cc1)Nc1cccc(C(F)(F)F)c1 [Compound C075]
> 89%

Try this molecule next: O=C(Nc1ccc(C(F)(F)F)cc1)Nc1ccc(Oc2ccc3nccnc3c2)cc1F [Compound C097]
70 to 89%

Try this molecule next: O=C(Nc1cccc(Oc2ccc3nccnc3c2)c1)Nc1cccc(C(F)(F)F)c1 [Compound C003]
> 89%

Try this molecule next: O=C(Nc1ccc(Oc2ccc3ncc(N4CCOCC4)nc3c2)cc1)Nc1cccc(Cl)c1 [Compound C081]
> 89%

Try this molecule next: O=C(Nc1ccc(Cl)cc1)Nc1cccc(Oc2ccc3ncc(N4CCNCC4)nc3c2)c1 [Compound C051]
> 89%

Try this molecule next: O=C(Nc1ccc(Oc2ccc3nccnc3c2)cc1)Nc1cccc(F)c1 [Compound C074]
70 to 89%

Try this molecule next: O=C(Nc1ccc(Cl)c(C(F)(F)F)c1)Nc1ccc(Oc2ccc3nccnc3c2)cc1F [Compound C095]
< 70%

Try this molecule next: O=C(Nc1ccc(Oc2ccc3ncc(N4CCNCC4)nc3c2)cc1)Nc1ccc(C(F)(F)F)cc1 [Compound C088]
> 89%

Try this molecule next: O=C(Nc1ccc(Cl)cc1)Nc1ccc(Oc2ccc3ncc(N4CCOCC4)nc3c2)cc1 [Compound C085]
70 to 89%

Try this molecule next: O=C(Nc1ccc(Oc2ccc3ncc(N4CCNCC4)nc3c2)cc1)Nc1ccc(F)c(C(F)(F)F)c1 [Compound C087]
> 89%

Try this molecule next: O=C(Nc1ccc(F)cc1)Nc1ccc(F)c(Oc2ccc3ncc(N4CCNCC4)nc3c2)c1 [Compound C060]
> 89%

Try this molecule next: O=C(Nc1ccc(Oc2ccc3ncc(N4CCOCC4)nc3c2)cc1)Nc1ccc(F)c(C(F)(F)F)c1 [Compound C086]
70 to 89%

Try this molecule next: O=C(Nc1cc(F)cc(F)c1)Nc1ccc(F)c(Oc2ccc3ncc(N4CCNCC4)nc3c2)c1 [Compound C062]
> 89%

Try this molecule next: O=C(Nc1cccc(Oc2ccc3ncc(N4CCOCC4)nc3c2)c1)Nc1cccc(C(F)(F)F)c1 [Compound C046]
> 89%

Try this molecule next: O=C(Nc1cccc(F)c1)Nc1cccc(Oc2ccc3ncc(N4CCNCC4)nc3c2)c1 [Compound C037]
> 89%

Try this molecule next: O=C(Nc1cccc(F)c1)Nc1ccc(F)c(Oc2ccc3ncc(N4CCOCC4)nc3c2)c1 [Compound C034]
> 89%

====

tgt: KDR (VEGFR2) (Homo sapiens (Human), UniProt P35968)
Sequence (P35968 20-1356): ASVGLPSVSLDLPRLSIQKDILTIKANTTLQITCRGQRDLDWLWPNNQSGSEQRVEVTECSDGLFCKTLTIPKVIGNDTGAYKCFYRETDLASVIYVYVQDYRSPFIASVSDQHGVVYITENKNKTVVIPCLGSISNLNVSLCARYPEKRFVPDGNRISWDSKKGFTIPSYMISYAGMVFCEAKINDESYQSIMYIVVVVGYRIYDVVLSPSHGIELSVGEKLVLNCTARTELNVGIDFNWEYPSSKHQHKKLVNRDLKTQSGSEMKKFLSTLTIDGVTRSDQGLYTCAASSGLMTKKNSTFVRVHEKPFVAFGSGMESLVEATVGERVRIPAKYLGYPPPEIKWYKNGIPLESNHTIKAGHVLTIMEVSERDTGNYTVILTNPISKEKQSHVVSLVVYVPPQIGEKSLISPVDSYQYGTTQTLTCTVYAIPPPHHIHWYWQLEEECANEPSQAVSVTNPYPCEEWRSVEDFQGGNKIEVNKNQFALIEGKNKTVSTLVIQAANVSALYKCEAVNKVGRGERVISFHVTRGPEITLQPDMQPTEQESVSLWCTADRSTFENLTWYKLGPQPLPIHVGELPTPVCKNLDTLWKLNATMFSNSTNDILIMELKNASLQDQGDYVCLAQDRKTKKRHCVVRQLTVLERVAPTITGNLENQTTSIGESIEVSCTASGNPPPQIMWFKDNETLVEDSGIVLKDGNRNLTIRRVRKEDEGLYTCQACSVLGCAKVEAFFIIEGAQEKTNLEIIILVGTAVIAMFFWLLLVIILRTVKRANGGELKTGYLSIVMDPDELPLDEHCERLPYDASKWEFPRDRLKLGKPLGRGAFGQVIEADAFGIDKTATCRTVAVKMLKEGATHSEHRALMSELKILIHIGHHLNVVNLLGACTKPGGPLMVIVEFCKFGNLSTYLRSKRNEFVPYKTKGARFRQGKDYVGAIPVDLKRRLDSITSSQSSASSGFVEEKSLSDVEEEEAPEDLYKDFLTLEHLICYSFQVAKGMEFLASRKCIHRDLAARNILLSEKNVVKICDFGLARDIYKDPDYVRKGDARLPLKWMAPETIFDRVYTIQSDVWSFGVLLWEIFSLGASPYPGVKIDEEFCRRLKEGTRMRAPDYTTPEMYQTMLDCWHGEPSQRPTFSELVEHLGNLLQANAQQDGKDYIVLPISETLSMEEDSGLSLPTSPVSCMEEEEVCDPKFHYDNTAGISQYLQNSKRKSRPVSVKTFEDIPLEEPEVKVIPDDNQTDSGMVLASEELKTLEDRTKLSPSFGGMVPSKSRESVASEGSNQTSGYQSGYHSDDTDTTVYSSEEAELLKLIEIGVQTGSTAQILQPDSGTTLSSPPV
assay text: Inhibitory activity against kinase KDR, Z'-LYTE method (Invitrogen)
Assay type: biochemical
conditions used: 1 μM compound; read-out: Inhibition (% inhibition at 1 μM) against KDR
Provide the recorded inhibition at 1 µM for the entries that follow.

Look up inhibition at 1 µM for this compound: N#Cc1ccc(NC(=O)Nc2cccc(Oc3ccc4nccnc4c3)c2)cc1
> 89%

Try this compound next: O=C(Nc1cccc(Cl)c1)Nc1cccc(Oc2ccc3ncc(N4CCOCC4)nc3c2)c1
70 to 89%

Try this compound next: O=C(Nc1ccc(Oc2ccc3ncc(N4CCNCC4)nc3c2)cc1)Nc1ccc(C(F)(F)F)cc1
> 89%

Try this compound next: O=C(Nc1ccc(F)cc1)Nc1ccc(Oc2ccc3ncc(N4CCOCC4)nc3c2)cc1
70 to 89%

Try this compound next: O=C(Nc1ccc(F)cc1)Nc1ccc(F)c(Oc2ccc3ncc(N4CCNCC4)nc3c2)c1
> 89%

Try this compound next: O=C(Nc1cccc(Oc2ccc3nccnc3c2)c1)c1cccc(C(F)(F)F)c1
70 to 89%

Try this compound next: O=C(Nc1ccc(Cl)c(F)c1)Nc1ccc(F)c(Oc2ccc3ncc(N4CCOCC4)nc3c2)c1
70 to 89%

Try this compound next: O=C(Nc1ccc(F)c(Cl)c1)Nc1ccc(F)c(Oc2ccc3ncc(N4CCOCC4)nc3c2)c1
70 to 89%

Try this compound next: O=C(Nc1cccc(Oc2ccc3ncc(N4CCNCC4)nc3c2)c1)Nc1ccc(F)c(F)c1
> 89%

Try this compound next: O=C(Nc1ccc(Cl)cc1)Nc1ccc(Oc2ccc3ncc(N4CCNCC4)nc3c2)cc1
70 to 89%

Try this compound next: O=C(Nc1ccc(Oc2ccc3ncc(N4CCOCC4)nc3c2)cc1)Nc1ccc(Cl)c(C(F)(F)F)c1
> 89%

Try this compound next: O=C(Nc1ccc(Oc2ccc3ncc(N4CCOCC4)nc3c2)cc1)Nc1ccc(F)c(C(F)(F)F)c1
> 89%

Try this compound next: O=C(Nc1ccc(F)c(C(F)(F)F)c1)Nc1ccc(Oc2ccc3nccnc3c2)cc1F
< 70%

Try this compound next: O=C(Nc1cccc(Cl)c1)Nc1ccc(F)c(Oc2ccc3ncc(N4CCNCC4)nc3c2)c1
> 89%

Try this compound next: O=C(Nc1ccc(Oc2ccc3ncc(N4CCNCC4)nc3c2)cc1)Nc1cccc(Cl)c1
> 89%

Try this compound next: O=C(Nc1cc(F)cc(Oc2ccc3ncc(N4CCOCC4)nc3c2)c1)c1cccc(C(F)(F)F)c1
70 to 89%

====

tgt: BRAF V600E (Homo sapiens (Human), UniProt P15056, V600E)
assay text: Inhibitory activity against kinase BRAF V600E, Z'-LYTE method (Invitrogen)
Type: biochemical
conditions used: 1 μM compound; read-out: Inhibition (% inhibition at 1 μM) against BRAF V600E
Provide the recorded inhibition at 1 µM for the entries that follow.

Give BRAF V600E (Homo sapiens (Human), UniProt P15056, V600E) inhibition at 1 µM for O=C(Nc1ccc(F)cc1)Nc1ccc(Oc2ccc3ncc(N4CCNCC4)nc3c2)cc1
> 89%

Try this compound next: O=C(Nc1ccc(Cl)cc1)Nc1ccc(Oc2ccc3nccnc3c2)c(F)c1
70 to 89%

Try this compound next: O=C(Nc1ccc(F)c(Oc2ccc3nccnc3c2)c1)Nc1ccc(Cl)c(C(F)(F)F)c1
< 70%

Try this compound next: O=C(Nc1cc(F)cc(Oc2ccc3ncc(N4CCOCC4)nc3c2)c1)c1ccc(Cl)c(C(F)(F)F)c1
70 to 89%

Try this compound next: O=C(Nc1ccc(Oc2ccc3nccnc3c2)cc1)c1cccc(C(F)(F)F)c1
70 to 89%

Try this compound next: O=C(Nc1ccc(Cl)cc1)Nc1ccc(Oc2ccc3nccnc3c2)cc1F
> 89%

Try this compound next: O=C(Nc1cc(F)cc(Oc2ccc3ncc(N4CCOCC4)nc3c2)c1)c1cccc(F)c1
70 to 89%

Try this compound next: O=C(Nc1cccc(C(F)(F)F)c1)Nc1ccc(F)c(Oc2ccc3ncc(N4CCOCC4)nc3c2)c1
70 to 89%

Try this compound next: O=C(Nc1cc(F)cc(F)c1)Nc1cccc(Oc2ccc3ncc(N4CCOCC4)nc3c2)c1
70 to 89%

Try this compound next: O=C(Nc1ccc(Cl)c(F)c1)Nc1ccc(F)c(Oc2ccc3ncc(N4CCOCC4)nc3c2)c1
> 89%

Try this compound next: O=C(Nc1ccc(F)c(Oc2ccc3nccnc3c2)c1)c1ccc(Cl)c(C(F)(F)F)c1
70 to 89%

Try this compound next: O=C(Nc1cccc(F)c1)Nc1cccc(Oc2ccc3ncc(N4CCOCC4)nc3c2)c1
> 89%

Try this compound next: O=C(Nc1ccc(Oc2ccc3nccnc3c2)cc1F)c1ccnc(C(F)(F)F)c1
< 70%

Try this compound next: O=C(Nc1ccc(F)c(Oc2ccc3ncc(N4CCOCC4)nc3c2)c1)c1cccc(C(F)(F)F)c1
70 to 89%

Try this compound next: O=C(Nc1cccc(F)c1)Nc1ccc(F)c(Oc2ccc3nccnc3c2)c1
> 89%

Try this compound next: O=C(Nc1ccc(F)cc1)Nc1cccc(Oc2ccc3ncc(N4CCOCC4)nc3c2)c1
> 89%
